- System: KMS12PE
- test_name: MTT assay, metformin in KMS12PE myeloma cells
- Format: cell-based
- settings: Homo sapiens, KMS-12-PE, 72 hours, Compusyn, read-out: metformin required to achieve 50% cell death/growth inhibition (IC50)

{"columns": ["structure_smiles", "study_system", "IC50"],
 "data": [
  ["CN(C)C(=N)N=C(N)N", "KMS12PE", "< 10 mM"]
]}
